- Target or test system: Solute carrier organic anion transporter family member 1B1 (Homo sapiens, UniProt Q9Y6L6)
- Sequence (Q9Y6L6 whole entry): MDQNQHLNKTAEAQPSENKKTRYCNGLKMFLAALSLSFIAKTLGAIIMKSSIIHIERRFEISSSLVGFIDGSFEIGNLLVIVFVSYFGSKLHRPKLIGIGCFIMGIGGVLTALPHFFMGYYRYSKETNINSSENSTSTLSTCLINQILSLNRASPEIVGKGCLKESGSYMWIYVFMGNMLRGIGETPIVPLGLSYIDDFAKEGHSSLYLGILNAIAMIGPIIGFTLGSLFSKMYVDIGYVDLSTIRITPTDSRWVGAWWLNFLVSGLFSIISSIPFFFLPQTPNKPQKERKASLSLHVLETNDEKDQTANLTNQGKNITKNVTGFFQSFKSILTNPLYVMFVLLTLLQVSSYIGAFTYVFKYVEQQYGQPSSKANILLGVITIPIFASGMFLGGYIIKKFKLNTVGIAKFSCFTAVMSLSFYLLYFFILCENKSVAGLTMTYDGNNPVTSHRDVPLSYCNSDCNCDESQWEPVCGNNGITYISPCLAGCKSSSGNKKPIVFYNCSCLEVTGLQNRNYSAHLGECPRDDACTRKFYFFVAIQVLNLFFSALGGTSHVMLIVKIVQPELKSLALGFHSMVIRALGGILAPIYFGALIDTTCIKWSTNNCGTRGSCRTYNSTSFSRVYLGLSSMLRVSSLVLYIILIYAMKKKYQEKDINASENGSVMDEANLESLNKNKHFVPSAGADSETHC
- Test settings: chinese hamster, cho, 10 µM
Rule: Condition met for residual activity not less than 90%, Condition not met for anything less.

[[record]]
molecule = "COC(=O)Nc1nc2ccc(C(=O)c3cccs3)cc2[nH]1"
group = "Condition met"

[[record]]
molecule = "O=c1c2ccccc2oc2ccccc12"
group = "Condition met"

[[record]]
molecule = "Cc1onc(-c2c(Cl)cccc2Cl)c1C(=O)N[C@@H]1C(=O)N2[C@@H]1SC(C)(C)[C@@H]2C(=O)[O-].O.[Na+] [DICLOXACILLIN SODIUM]"
group = "Condition not met"

[[record]]
molecule = "CN1CCc2cc3c(cc2C1O)OCO3.Cl (centres undefined) [HYDRASTININE HYDROCHLORIDE]"
group = "Condition not met"

[[record]]
molecule = "Cc1cc(O)c2c(c1)C(=O)c1cccc(O)c1C2=O"
group = "Condition met"

[[record]]
molecule = "CC(C)[C@@H]1CC[C@@H](C)CC1=O"
group = "Condition met"

[[record]]
molecule = "CCOc1nc2cccc(C(=O)OC(C)OC(=O)OC3CCCCC3)c2n1Cc1ccc(-c2ccccc2-c2nnn[nH]2)cc1 (centres undefined)"
group = "Condition not met"

